These entries and their values trace back to paper PMC5540273.

Examples of molecules with documented %Inh follow.
Tested on: SgK110
details: concentration: 1 μM, replicates: in singlicate; n = 1;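 further: KINOMEscan kinase panel screen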
readout.label: %Inh (%)

* Nc1nc(-c2cccnc2)c(-c2ccnc3ccccc23)s1 [GW684083] | 48
* COc1ccc(Nc2nccc(N3CCC(NC(=O)Nc4ccc5c(c4)OCO5)C3)n2)cc1 (stereo not drawn) [GSK1379745] | 2
* COc1ccc(-c2nc3n(c2-c2ccncc2)CCC3)cc1 [SKF-104493] | 0
* Fc1cccc(COc2ccc(Nc3ncnc4sc(-c5ccc[nH]5)cc34)cc2Cl)c1 [GW707818] | 0
* Clc1ccc(-c2cc(-c3c[nH]nc3-c3ccccn3)ccn2)cc1 [GW681251] | 0
* Clc1cccc(-c2nc(Nc3ccncc3)c3ccccc3n2)c1 [GW873004] | 38
* CNc1nccc(-c2c(-c3ccc(F)cc3)ncn2C2CCN(C)CC2)n1 [SB-222903] | 36
* CC(=O)Nc1n[nH]c2ncc(-c3ccccc3)cc12 [SB-548492] | 3
* Cl.c1ccc(Cn2ccc3cc(Nc4ncnc5ccccc45)ccc32)cc1 [GW275568] | 0

====

System: SNARK
Construct: gene NUAK2
details: concentration: 1 μM, replicates: in singlicate; n = 1
readout.label: %Inh

- CS(=O)(=O)CCNCc1ccc(-c2ccc3ncnc(Nc4ccc(OCc5ccccc5)c(Cl)c4)c3c2)o1.Cl: 0%
- Clc1ccc(-c2cc(-c3c[nH]nc3-c3ccccn3)ccn2)cc1: 0%
- Cl.Cl.c1ccc(-c2cc3ccncc3cc2OC2CCNCC2)cc1: 23%
- CC(C)(C)c1ccc(-n2cnc3c(N)ncnc32)cc1: 18%
- O=C(NCCCN1CCCC1=O)c1cnc(NCc2cc(Cl)ccc2Cl)nc1NC1CCNCC1: 0%
- OCCOCCn1ccc2ncnc(Nc3ccc(Oc4cccc(Cl)c4)c(Cl)c3)c21: 0%
- FC(F)(F)c1cc(Nc2nccc(-c3c(-c4ccc(Cl)cc4)nn4ncccc34)n2)ccc1Cl: 0%
- NC(=O)c1sc(-n2cnc3ccccc32)cc1OCc1ccccc1F: 29%
- Cl.O=S(=O)(c1cccc(F)c1)c1ccc(Nc2ncnc3cc(Br)sc23)cc1Cl: 14%
- CC(C)(C)OC(=O)NC1CCCN(c2cc(-c3ccc4c(N)n[nH]c4c3)nc(N)n2)C1 (stereo not drawn): 0%
- CNc1nccc(-c2c(-c3ccc(F)cc3)ncn2C2CCN(C)CC2)n1: 0%
- FC(F)(F)c1ccc(-c2cc(-c3c[nH]nc3-c3ccccn3)ccn2)cc1: 10%
- Fc1cccc(COc2ccc(Nc3ncnc4cc[nH]c34)cc2Cl)c1: 36%
- COc1cc2c(Nc3cccc(NC(=O)c4ccccc4)c3)ncnc2cc1OCCCN1CCOCC1: 0%
- Nc1nc(-c2ccc3c(N)n[nH]c3c2)cc(N2CCC[C@@H](C(=O)Nc3ccccc3)C2)n1.O=C(O)C(F)(F)F.O=C(O)C(F)(F)F: 21%
- O=C(c1ccc(-c2cc(-c3c[nH]nc3-c3ccccn3)ccn2)cc1)N1CCCC1: 0%
- CCC(CC)(CC)n1cnc2c(N)ncnc21: 28%
- Fc1ccc(-c2ncn(CCCNCc3ccccc3)c2-c2ccncc2)cc1: 5%
- COC(=O)c1c(-c2ccccc2)c2cc(Cl)ccc2c(=O)n1Cc1ccc(S(C)(=O)=O)cc1: 18%
- CSc1nn2c(=O)cc(N3CCOCC3)nc2n1Cc1cccc(Cl)c1Cl: 8%
- Cl.Cn1ccc(-c2cccc(Nc3ccnc4cc(-c5nccs5)ccc34)c2)n1: 0%
- C[C@@H]1CCN(C(=O)CO)C[C@@H]1N(C)c1ncnc2[nH]ccc12: 10%
- CN1CCC(n2cnc(-c3ccc(F)cc3)c2-c2ccnc(NC3CCNCC3)n2)CC1: 0%
- FC(F)(F)c1ccc(-c2nn3ncccc3c2-c2ccnc(Nc3cccc(C(F)(F)F)c3)n2)cc1: 0%
- Cn1cc(-c2ccc3c(c2)CCN3C(=O)Cc2cccc(C(F)(F)F)c2)c2c(N)ncnc21: 14%
- Clc1cc(Nc2ncnc3cc[nH]c23)ccc1OCc1ccccn1: 27%
- COc1ccc(-c2oc3ncnc(N)c3c2-c2ccc(OC)cc2)cc1: 0%
- CCc1nc(-c2cccc(N(C)S(=O)(=O)c3ccccc3)c2)c(-c2ccnc(Nc3ccc(N4CCN(C(C)=O)CC4)nc3)n2)s1: 23%
- CCn1c(-c2ccncc2)nc2cnccc21: 21%
- Clc1cccc(-c2nc(Nc3ccncc3)c3ccccc3n2)c1: 0%
- COc1ccc(Nc2nccc(N3CCC(NC(=O)c4cccc(NC(C)=O)c4)C3)n2)cc1 (stereo not drawn): 3%
- CC(C)N1CCC(n2cnc(-c3ccc(F)cc3)c2-c2ccnc(N)n2)CC1: 0%
- Nc1nccc2scc(-c3ccc4c(c3)CCN4C(=O)Cc3cc(F)ccc3F)c12: 0%
- Fc1cccc(COc2ccc(Nc3ncnc4sc(-c5ccc[nH]5)cc34)cc2Cl)c1: 15%
- Nc1nc(-c2ccccn2)c(-c2ccnc3ccccc23)s1: 0%
- Cc1cccc(-c2nc(Nc3ccc4[nH]nnc4c3)c3ccccc3n2)n1: 0%
